# Tested on: 242566-281-R-J2-PDC complex spheroid viability;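 note: spheroids exposed to compound for 7 days before readout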
# assay_method_text: Anticancer human tumor 242566-281-R-J2-PDC patient-derived pancreatic carcinoma cell line growth inhibition [RAS]
# experimental_context: curve of first compound; second compound 0.000949 µM
measurement_label: IC50 (nM)
Use nM as the unit, but write only the number.

Example compounds with recorded IC50:
{"compound": "Cc1nc(N2CCC3(CC2)COC(C)C3N)c(CO)nc1Sc1ccnc(N)c1Cl (stereo unspecified) + CCn1c(-c2cc(N3CCN(C)CC3)cnc2C(C)OC)c2c3cc(ccc31)-c1csc(n1)CC(NC(=O)C1CC1C)C(=O)N1CCCC(N1)C(=O)OCC(C)(C)C2", "unit_symbol": "nM", "IC50": 353}
{"compound": "O=C(c1ccc(F)c(F)c1Nc1ccc(I)cc1F)N1CC(O)([C@@H]2CCCCN2)C1 + CCn1c(-c2cc(N3CCN(C)CC3)cnc2C(C)OC)c2c3cc(ccc31)-c1csc(n1)CC(NC(=O)C1CC1C)C(=O)N1CCCC(N1)C(=O)OCC(C)(C)C2", "unit_symbol": "nM", "IC50": 35.4}
{"compound": "CC1(O)CCCC1n1c(=O)c(C(F)F)cc2cnc(NC3CCN(S(C)(=O)=O)CC3)nc21 (stereo unspecified) + CCn1c(-c2cccnc2C(C)OC)c2c3cc(ccc31)N1CCOC(CC(NC(=O)C(C(C)C)N(C)C(=O)C3(F)CCN(C(=O)C#CC(C)(C)N(C)C)CC3)C(=O)N3CCCC(N3)C(=O)OCC(C)(C)C2)C1", "unit_symbol": "nM", "IC50": 6360}

## Task Can you look up the measured IC50 of O=C(c1ccc(F)c(F)c1Nc1ccc(I)cc1F)N1CC(O)([C@@H]2CCCCN2)C1 + CCn1c(-c2cccnc2C(C)OC)c2c3cc(ccc31)N1CCOC(CC(NC(=O)C(C(C)C)N(C)C(=O)C3(F)CCN(C(=O)C#CC(C)(C)N(C)C)CC3)C(=O)N3CCCC(N3)C(=O)OCC(C)(C)C2)C1 for me?
## Result 96.3

## Task Can you look up the measured IC50 of CCC(CC)c1cc(NC2CCC(N)C2)n2nccc2n1 (stereo unspecified) + CCn1c(-c2cc(N3CCN(C)CC3)cnc2C(C)OC)c2c3cc(ccc31)-c1csc(n1)CC(NC(=O)C1CC1C)C(=O)N1CCCC(N1)C(=O)OCC(C)(C)C2 for me?
## Result 2620

## Task Can you look up the measured IC50 of CC(C)n1nc(-c2ccc3oc(N)nc3c2)c2c(N)ncnc21 + CCn1c(-c2cc(N3CCN(C)CC3)cnc2C(C)OC)c2c3cc(ccc31)-c1csc(n1)CC(NC(=O)C1CC1C)C(=O)N1CCCC(N1)C(=O)OCC(C)(C)C2 for me?
## Result 29.9

## Task Can you look up the measured IC50 of CCc1c2c(nc3ccc(O)cc13)-c1cc3c(c(=O)n1C2)COC(=O)[C@]3(O)CC + CCn1c(-c2cccnc2C(C)OC)c2c3cc(ccc31)N1CCOC(CC(NC(=O)C(C(C)C)N(C)C(=O)C3(F)CCN(C(=O)C#CC(C)(C)N(C)C)CC3)C(=O)N3CCCC(N3)C(=O)OCC(C)(C)C2)C1 for me?
## Result 18.1

## Task Can you look up the measured IC50 of Nc1ccn(C2OC(CO)C(O)C2(F)F)c(=O)n1 (stereo unspecified) + CCn1c(-c2cccnc2C(C)OC)c2c3cc(ccc31)N1CCOC(CC(NC(=O)C(C(C)C)N(C)C(=O)C3(F)CCN(C(=O)C#CC(C)(C)N(C)C)CC3)C(=O)N3CCCC(N3)C(=O)OCC(C)(C)C2)C1 for me?
## Result 53
